Cited source for all entries: the supplement of paper PMC6555819

- Test system: THRa:RXRa (NR concentration 90 nM, RXRa partner concentration 90 nM)
- Method notes: PBM binding z-score (relative to random genomic background probes); higher = stronger binding; sequences stand for … in GC…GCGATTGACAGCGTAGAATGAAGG
# binarize PBM binding z-score: threshold 2 inclusive, high side rule met, low side rule not met

> print(dat)
                  biopolymer.sequence     class
1  CGTCCAAGGTCAGCAGGTCAGGGAAAGCGACGTG  rule met

Exam item: Check the entry "CGTCAGAGTTCAAGGTAACGTAACAGAAAGCAGC" : does PBM binding z-score equal or exceed 2?
Marked response: rule met

Exam item: Let us now turn to "CAAACTAGGTCACCCGAAGGTCAAAGTCCGCATG"
Marked response: rule met

* * *

- Test system: RARg:RXRa (NR concentration 270 nM, RXRa partner concentration 90 nM)
- Method notes: PBM binding z-score (relative to random genomic background probes); higher = stronger binding; sequences stand for … in GC…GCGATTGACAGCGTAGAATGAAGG
# binarize PBM binding z-score: threshold 4 inclusive, high side true, low side false

> print(dat)
                  biopolymer.sequence  class
1  GCTGCTAGGTCAACTGATGCTCAGCTAAAGCTCG   true
2  CCTACTGGGCCAAAGGTCATTGAGTCCAATGCTC   true
3  CCTGCTAGGTCATGGTCAGCTTATCTACAGTATG  false
4  GATACAGGGGCAGCTAGAGGCCAGAGTATGGAAA  false
5  ATACCAAGGTGATCGCGAGGTCGTTGATACTAAC  false
6  TCTCAGAGGACACGAAAGGTCAGAGCTCGACATC   true
7  CGTCAAAGTTCAACTAAGGTAACGTCAAGCACGC   true
8  CCTTACGGGTCACTCGAGGTTATAGCATCGGAGT   true

Exam item: Check the entry "GCTTACGGGTCAAAGGCTATAGCATGAATAGAAT" : does PBM binding z-score equal or exceed 4?
Marked response: true

Exam item: Let us now turn to "CATGCTAGGTCAATGGTCAGCTAAAGCAGCTCGC"
Marked response: false

* * *

Each item that follows carries a reported PBM binding z-score.
- Test system: RARg:RXRa (NR concentration 270 nM, RXRa partner concentration 90 nM)
- Method notes: PBM binding z-score (relative to random genomic background probes); higher = stronger binding; sequences stand for … in GC…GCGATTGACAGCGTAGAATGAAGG

> print(dat)
                  biopolymer.sequence    measured.quantity  assay.result
1  GCTAGCAGGCCATTTGGGTCATTCAATGACGGGC  PBM binding z-score         0.979

Exam item: GET /values?readout=PBM binding z-score&system=RARg:RXRa (NR concentration 270 nM, RXRa partner concentration 90 nM)&item= "TCGGGTAGGTTAGGGGCATTCAGAATGGCGTCGA"
Marked response: 1.07

Exam item: Let us now turn to "ATCGGAAGGTCGAAGGTGAGTATACCCACCCGAA"
Marked response: 2.82

Exam item: Let us now turn to "TCTTGTAGATCAATCGAGGTTAAGAAAGTGCGCT"
Marked response: 0.6

* * *

Each item that follows carries a reported PBM binding z-score.
- Test system: PPARa:RXRa (NR concentration 270 nM, RXRa partner concentration 90 nM)
- Method notes: PBM binding z-score (relative to random genomic background probes); higher = stronger binding; sequences stand for … in GC…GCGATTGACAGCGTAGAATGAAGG
API doc: respond with a numeric literal and nothing else, no unit.

Reference set, count: 6
> print(dat)
                  biopolymer.sequence                              study.system  assay.result
1  GCGACTGGGGCACCAGCAGGTTACCATAACTTAA  PPARa:RXRa (NR concentration 270 nM, RXRa partner concentration 90 nM)          1.05
2  CGTCCAAGGTCGATGCTAGGTCAGTGAAAGCATT  PPARa:RXRa (NR concentration 270 nM, RXRa partner concentration 90 nM)          1.81
3  ATCTCTAGGTAGCAAGTTCAGTGAAAGAGAGGAC  PPARa:RXRa (NR concentration 270 nM, RXRa partner concentration 90 nM)         0.475
4  TCTATTAGTTGAAAGGCAACCGACGAGTCCGTTT  PPARa:RXRa (NR concentration 270 nM, RXRa partner concentration 90 nM)          1.12
5  CCTGCTAGGTCATAGTCAGCTAATCTACAGTATG  PPARa:RXRa (NR concentration 270 nM, RXRa partner concentration 90 nM)          3.12
6  CCTGTTAGGTCATGGTCAGCTAATCTACAGTATG  PPARa:RXRa (NR concentration 270 nM, RXRa partner concentration 90 nM)          3.71

Exam item: GET /values?readout=PBM binding z-score&system=PPARa:RXRa (NR concentration 270 nM, RXRa partner concentration 90 nM)&item= "TCTAGCAGGCGAGAGGGTCACTCAAGAGGTACGG"
Marked response: 2.03

Exam item: Let us now turn to "CCTGCTAGGTCAATGGTAAGCTAAAGCAGCTCGC"
Marked response: 2.84

Exam item: Let us now turn to "ACTATTAGTTAACTTAGGGCAACCGATACGACGC"
Marked response: 0.281

Exam item: Let us now turn to "CCTTACGGGTCACGAGGTTAAAGCACGACGAGCG"
Marked response: 6.28

Exam item: Let us now turn to "CAAACTAGGTCACTGAGGTCAAAGTCCGTGCGTA"
Marked response: 6.2

Exam item: Let us now turn to "CAAACTAGGTGAAAGGTCAAAGTCGAGCCAACCA"
Marked response: 7.39
